System: NCI-H1915
Experiment: relative viability (nuclei count vs DMSO), 5 days (fraction); higher = more cells survive
Conditions: first compound 500 µM
measurementType: relative viability
Would you mind answering with just the numeric figure?

Previously resolved entries follow.
| compound | measurementType | valueReported |
| --- | --- | --- |
| O=C(O)CCCCC(CCSCc1ccccc1)SCc1ccccc1 (centres undefined) [CPI-613] + C[C@]1(O)C[C@@H](c2nc(-c3ccc4ccc(-c5ccccc5)nc4c3)c3c(N)nccn32)C1 [Linsitinib] (partner 1 µM) | relative viability | 0.626 |
| O=C(O)CCCCC(CCSCc1ccccc1)SCc1ccccc1 (centres undefined) [CPI-613] + NC(=O)Nc1cc(-c2cccc(F)c2)sc1C(=O)N[C@H]1CCCNC1 [AZD7762] (partner 0.2 µM) | relative viability | 0.303 |
| O=C(O)CCCCC(CCSCc1ccccc1)SCc1ccccc1 (centres undefined) [CPI-613] + Cc1nc(Nc2ncc(C(=O)Nc3c(C)cccc3Cl)s2)cc(N2CCN(CCO)CC2)n1 [Dasatinib] (partner 0.075 µM) | relative viability | 0.169 |

Please turn your attention to the following entry.
Fill in: relative viability of O=C(O)CCCCC(CCSCc1ccccc1)SCc1ccccc1 (centres undefined) [CPI-613] + Cc1cc(Nc2cc(N3CCN(C)CC3)nc(Sc3ccc(NC(=O)C4CC4)cc3)n2)n[nH]1 [Tozasertib] (partner 0.1 µM) is ___ 0.111
